biological target: BRD4 Bromodomain 2 (BRD4 BD2) (Homo sapiens); construct: 333-460 were cloned, expressed, and purified to homogeneity; assay: AlphaScreen binding assay, BRD4 BD2; settings: His-tagged BRD4 BD2 100 nM, biotinylated H4 (1-21) K5/8/12/16 tetra-acetylated peptide 100 nM, compounds listed under IC50 range headings
pIC50: −log10 of the molar value.
Listed next: entries and their corresponding pIC50.

Here's what some known entries look like.
1) CC(=O)N1c2ccc(-c3cnn(CCO)c3)c(OCC(=O)N(C)C)c2CC[C@@H]1C    6.30 to 7.30
2) COC(=O)N1c2ccc(-c3cnn(CCS(C)(=O)=O)c3)c(Oc3ncccc3C#N)c2CC[C@@H]1C    6.30 to 7.30
3) CC(=O)N1c2ccc(-c3cnn(C4CC4)c3)c(OCC(=O)N3CCCCC3)c2CC[C@@H]1C    6.30 to 7.30

# input for lookup
Field pIC50 (entry COC(=O)N1c2ccc(-c3cnn(C4CCNC4)c3)c(Oc3ccc(F)cc3)c2CC[C@@H]1C (stereo partly shown) ) reads > 7.30

----------
Molecular target: BRD4 Bromodomain 1 (BRD4 BD1) (Homo sapiens, UniProt O60885)
Construct: 44-168 and BRD4 BD2
Experiment: AlphaScreen binding assay, BRD4 BD1
Settings: His-tagged BRD4 BD1 50 nM, biotinylated H4 (1-21) K5/8/12/16 tetra-acetylated peptide 50 nM, compounds listed under IC50 range headings
Procedure: The binding of Example compounds to BRD4 Bromodomain 1 and BRD4 Bromodomain 2 was assessed using 384-well AlphaScreen assay technology. His-epitope tagged BRD4 BD144-168 and BRD4 BD2333-460 were cloned, expressed, and purified to homogeneity. BRD4 BD1 and BRD4 BD2 binding and inhibition was assessed by monitoring the engagement of biotinylated Histone H4 (1-21) K5/8/12/16 tetra-acetylated peptide with the targets using the AlphaScreen technology (PerkinElmer). […]
pIC50: −log10 of the molar value.
parameter-measured: pIC50

Here's what some known entries look like.
1. CC(=O)N1c2ccc(-c3cnn(CCO)c3)c(OC[C@H]3CCC(=O)N3)c2CC[C@@H]1C    5.00 to 6.00
2. COC(=O)N1c2ccc(-c3cnn(C4CC4)c3)c(Oc3ncccc3C#N)c2CC[C@@H]1C    5.00 to 6.00
3. COC(=O)N1c2ccc(-c3cnn(C4CC5CN(C)CC5C4)c3)c(OC3CCC3)c2CC[C@@H]1C (some centres unmarked)    6.00 to 7.00
4. CC(=O)N1c2ccc(-c3ccc(S(C)(=O)=O)cc3)c(OCC(=O)N(C)C)c2CC[C@@H]1C    5.00 to 6.00
5. CC(=O)N1c2ccc(-c3ccc(NS(C)(=O)=O)cc3)c(OCC(=O)N(C)C)c2CC[C@@H]1C    5.00 to 6.00

Field pIC50 (entry `CC(=O)N1c2ccc(-c3cnn(C4CCNCC4)c3)c(Oc3ncccc3C(F)(F)F)c2CC[C@@H]1C` ) reads 6.00 to 7.00

Field pIC50 (entry `COC(=O)N1c2ccc(-c3cnn(C4CC4)c3)c(OCCC(F)(F)F)c2CC[C@@H]1C` ) reads 5.00 to 6.00

Field pIC50 (entry `CC(=O)N1c2ccc(-c3cnn(CC(C)(C)O)c3)c(OCC3CCOCC3)c2CC[C@@H]1C` ) reads 5.00 to 6.00

Field pIC50 (entry `CCCOc1c(-c2cnn(CCO)c2)ccc2c1CC[C@H](C)N2C(=O)OC` ) reads 5.00 to 6.00

Field pIC50 (entry `CC(=O)N1c2ccc(-c3cnn(CC(C)(C)O)c3)c(OCC(C)C)c2CC[C@@H]1C` ) reads 5.00 to 6.00

Field pIC50 (entry `CCCOc1c(C2=CCN(C(=O)OC(C)(C)C)CC2)ccc2c1CC[C@H](C)N2C(C)=O` ) reads ≤ 5.00

Field pIC50 (entry `COC(=O)N1c2ccc(-c3cnn([C@H]4CCNC[C@H]4F)c3)c(OC3CCC3)c2CC[C@@H]1C` ) reads 6.00 to 7.00

Field pIC50 (entry `C[C@H]1CCc2c(ccc(-c3ncc(C4CCNCC4)[nH]3)c2Oc2ccccc2)N1C(=O)C1CC1` ) reads 6.00 to 7.00

Field pIC50 (entry `C[C@H]1CCc2c(OC3CCC3)c(-c3cnn(C4CCNCC4)c3)cc(F)c2N1C(=O)C1CC1` ) reads 6.00 to 7.00

Field pIC50 (entry `CCCOc1c(-c2ccc(N3CCCS3(=O)=O)cc2)ccc2c1CC[C@H](C)N2C(C)=O` ) reads 5.00 to 6.00

Field pIC50 (entry CC(=O)N1c2cccc(Oc3ccccc3)c2CCC1C (racemic) ) reads ≤ 5.00

Field pIC50 (entry `C[C@H]1CCc2c(ccc(-c3cnn(C4CCNCC4)c3)c2Oc2cc(F)ccc2F)N1C(=O)C1CC1` ) reads 6.00 to 7.00
